Assay: Stability of pure lycopene isomers in n-hexane during storage at room temperature
Type: physicochemical
Details: n-hexane, room temperature, absence of light, 33 days
concentration 9-Z values, listed per item

{"compound": "CC(C)=CCC\\C(C)=C/C=C/C(C)=C/C=C/C(C)=C/C=C/C=C(C)/C=C/C=C(C)/C=C/C=C(\\C)CCC=C(C)C [5-Z lycopene]", "value measured": "2.3 % of total isomers"}

Q: Supply measured concentration 9-Z of CC(C)=CCC/C(C)=C/C=C/C(C)=C/C=C/C(C)=C/C=C/C=C(C)/C=C/C=C(C)/C=C/C=C(\C)CCC=C(C)C [all-E lycopene] in your reply.
Ans: 3.8 % of total isomers

Q: Supply measured concentration 9-Z of CC(C)=CCC/C(C)=C/C=C/C(C)=C\C=C\C(C)=C\C=C\C=C(C)\C=C\C=C(C)\C=C\C=C(/C)CCC=C(C)C [9-Z lycopene] in your reply.
Ans: 56.0 % of total isomers

Q: Supply measured concentration 9-Z of CC(C)=CCC/C(C)=C/C=C/C(C)=C/C=C/C(C)=C\C=C\C=C(C)\C=C\C=C(C)\C=C\C=C(/C)CCC=C(C)C [13-Z lycopene] in your reply.
Ans: 4.2 % of total isomers
